Just for reference, patent US8912206B2 is where these values come from.

Test target: human GPR119 (Homo sapiens, UniProt Q8TDV5)
Sequence (Q8TDV5 whole entry): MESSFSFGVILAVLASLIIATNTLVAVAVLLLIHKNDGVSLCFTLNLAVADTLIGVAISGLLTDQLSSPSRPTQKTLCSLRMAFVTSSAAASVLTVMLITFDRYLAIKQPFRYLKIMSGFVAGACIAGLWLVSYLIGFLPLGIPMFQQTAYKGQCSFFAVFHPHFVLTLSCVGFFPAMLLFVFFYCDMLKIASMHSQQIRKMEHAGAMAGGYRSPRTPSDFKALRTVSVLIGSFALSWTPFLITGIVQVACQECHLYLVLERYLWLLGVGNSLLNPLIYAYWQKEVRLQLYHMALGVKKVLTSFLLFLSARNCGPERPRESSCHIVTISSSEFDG
Experimental protocol: cAMP assay (LANCE cAMP kit), activation of GPR119
Conditions used: HEK293 cells expressing human GPR119, 30 minutes incubation
Protocol: The ability of illustrative compounds of the invention to activate GPR119 and stimulate increases in cAMP levels was determined using the LANCE™ cAMP kit (Perkin Elmer). […] Fluorescence was detected on the plates using an Envision instrument. The level of cAMP in each well is determined by extrapolation from the cAMP standard curve.
Measurement name: EC50

>>> print(df.to_string())
                                   compound  reported_measurement
0  COCCS(=O)(=O)N1CCC(Oc2ncnc(OC3C4COCC3CN(C(=O)OC3(C)CC3)C4)c2F)CC1 (stereo not shown) [Compound 8]         100 to 200 nM
1  CCS(=O)(=O)N1CCC(Oc2ncnc(OC3C4COCC3CN(C(=O)OC3(C)CC3)C4)c2F)CC1 (stereo not shown) [Compound 12]              < 100 nM
2  CC1(OC(=O)N2CC3COCC(C2)C3Oc2ncnc(OC3CCN(S(C)(=O)=O)CC3)c2F)CC1 (stereo not shown) [Compound 2]         100 to 200 nM
3  CC(C)(C)OC(=O)N1CCC(Oc2ncnc(OC3C4COCC3CN(C(=O)OC3(C)CC3)C4)c2F)CC1 (stereo not shown) [Compound 1]        500 to 1000 nM
4  CCCS(=O)(=O)N1CCC(Oc2ncnc(OC3C4COCC3CN(C(=O)OC3(C)CC3)C4)c2F)CC1 (stereo not shown) [Compound 11]              < 100 nM
5  CC1(OC(=O)N2CC3COCC(C2)C3Oc2ncnc(OC3CCN(S(=O)(=O)CCC(F)(F)F)CC3)c2F)CC1 (stereo not shown) [Compound 3]              < 100 nM
6  CC1(OC(=O)N2CC3COCC(C2)C3Oc2ncnc(OC3CCN(S(=O)(=O)C(F)(F)F)CC3)c2F)CC1 (stereo not shown) [Compound 6]        500 to 1000 nM
